- Tested on: IGROV-1
- protocol-description: NCI tumour cell line growth inhibition, 48 h
The source made the active and inactive calls. Cut-off read from the data, not from the text of the source: active = GI50 up to about 1.1 µM and inactive = higher.
recorded-metric: GI50

> print(dat)
                                   compound  recorded.metric             result
1  COc1cc(C2c3cc4c(cc3OC(NNC(N)=S)C2C)OCO4)cc(OC)c1OC (stereo not drawn)             GI50  0.441 µM (active)

*Q* Would you kindly share the measured GI50 for CCCCCCCCCCCCCCCCNc1nc(=O)n(C2CC(O)C(COP(=O)(O)OC3CC(n4cc(F)c(=O)[nH]c4=O)OC3CO)O2)cc1F (stereo not drawn) ?
*A* 1.95 µM (inactive)

*Q* Recorded GI50 for COc1c2c(cc3c(CCc4ccccc4)cc(=O)oc13)CCC(C)(C)O2 , please?
*A* > 100 µM (inactive)

*Q* Data request, read-out GI50, for CC1=NN(c2nc(N)nc(/C(C#N)=C/c3ccccc3O)n2)C(C)(C)C1
*A* 23.1 µM (inactive)

*Q* Which value of GI50 has been reported for CCCCCCSc1nc(N)nc2nc[nH]c12 in the records?
*A* 30.5 µM (inactive)

*Q* Name the recorded GI50 for C=C1C[C@@H](O)C[C@@]2(C)C[C@@H]3OC(=O)C(=C)[C@@H]3C[C@H]12 .
*A* 11.2 µM (inactive)
